# Tested on: STAPHYLOCOCCUS EPIDERMIDIS 3519
# Type: cell-based
# CONDITION_SET: S. epidermidis 3519; BHI agar; unit assumed

COMPOUND	MIC, mg/L
CC[C@H]1OC(=O)[C@H](C)C(=O)[C@H](C)[C@@H](O[C@@H]2O[C@H](C)C[C@H](N(C)C)[C@H]2O)[C@](C)(OC)C[C@@H](C)C2=N[C@H](COCc3ccccc3)CN3C(=O)O[C@@]1(C)[C@H]3[C@H]2C	0.39
CC[C@H]1OC(=O)[C@H](C)C(=O)[C@H](C)[C@@H](O[C@@H]2O[C@H](C)C[C@H](N(C)C)[C@H]2O)[C@](C)(OC)C[C@@H](C)C2=NC3CN(CCCc4ccccc4)CC3N3C(=O)O[C@@]1(C)[C@H]3[C@H]2C (some centres unmarked)	0.78

Data origin, for the record: patent US6274715A
